Test system: 313798-341-R-J2-PDC spheroids, viability;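 also: spheroids exposed to compounds for seven days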
Assay: Anticancer human tumor 313798-341-R-J2-PDC patient-derived cervical squamous cell carcinoma cell line growth inhibition [PI3K]
Settings: curve of first compound; second compound 0.316 µM; spheroids with HUVEC and MSC
pIC50: −log10 of the molar value.
Property Label: pIC50

Recorded pIC50, per entry:
Compound	Property Label	Reported Value
CCCS(=O)(=O)Nc1ccc(F)c(C(=O)c2c[nH]c3ncc(-c4ccc(Cl)cc4)cc23)c1F + Cc1nc(NC(=O)N2CCCC2C(N)=O)sc1-c1ccnc(C(C)(C)C(F)(F)F)c1	pIC50	5.25
CCN1CCN(Cc2ccc(Nc3ncc(F)c(-c4cc(F)c5nc(C)n(C(C)C)c5c4)n3)nc2)CC1 + CC(Nc1ccc2c(c1)OCCn1cc(N3C(=O)OCC3C(F)F)nc1-2)C(N)=O	pIC50	< 6.00
Cn1nccc1Nc1nccc(-c2ccn(C(CO)c3ccc(Cl)c(F)c3)c(=O)c2)n1 (stereo not given) + CC(Nc1ccc2c(c1)OCCn1cc(N3C(=O)OCC3C(F)F)nc1-2)C(N)=O	pIC50	< 5.00
CC1(C)CCC(Nc2ncc(C(F)(F)F)c(-c3c[nH]c4c(P(C)(C)=O)c(C#N)ccc34)n2)CN1 (stereo not given) + COc1c(OCCCN2CCOCC2)ccc2c3n(c(=NC(=O)c4cnc(N)nc4)nc12)CCN3	pIC50	> 7.50

Proceeding to the next compound to report its pIC50.
*Q* Record request: pIC50 value, item CC(=O)c1c(C)c2cnc(Nc3ccc(N4CCNCC4)cn3)nc2n(C2CCCC2)c1=O + CC(Nc1ncnc2nc[nH]c12)c1cc2cccc(Cl)c2c(=O)n1-c1ccccc1
*A* < 7.00
